Biological target: T1, cynomolgus IL-18BP (cynomolgus monkey)
T1 construct: also called cyno IL-18BP; cyIL-18BP
T1 chain: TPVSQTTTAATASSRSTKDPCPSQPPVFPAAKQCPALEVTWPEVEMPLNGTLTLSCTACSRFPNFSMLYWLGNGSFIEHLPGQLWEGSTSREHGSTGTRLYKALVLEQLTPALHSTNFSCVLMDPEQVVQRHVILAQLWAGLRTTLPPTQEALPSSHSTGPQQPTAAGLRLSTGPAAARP
Assay: BLI, apparent KD
# reported log10 of Kd; entries follow
METRIC_NAME: log10 of Kd (log10 of the value in nM)

BINDER: SA301a HC-Y50D (antibody, name in Kabat numbering, V domains shown, IgG1 kappa) VH: QVQLQESGPGLVKPSQTLSLTCTVSGYSITSDYNSHWIRQPPGKGLEWIGDIHYSGSTNYNPSLKSRVTISRDTSKNQFSLKLSSVTAADTAVYYCARNYGSIYVNYFDYWGQGTLVTVSS VL: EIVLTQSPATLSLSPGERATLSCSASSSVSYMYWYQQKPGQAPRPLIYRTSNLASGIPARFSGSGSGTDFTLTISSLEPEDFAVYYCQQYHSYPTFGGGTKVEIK
log10 of Kd: 1.22

BINDER: SA301a HC-H52V (antibody, name in Kabat numbering, V domains shown, IgG1 kappa) VH: QVQLQESGPGLVKPSQTLSLTCTVSGYSITSDYNSHWIRQPPGKGLEWIGYIVYSGSTNYNPSLKSRVTISRDTSKNQFSLKLSSVTAADTAVYYCARNYGSIYVNYFDYWGQGTLVTVSS VL: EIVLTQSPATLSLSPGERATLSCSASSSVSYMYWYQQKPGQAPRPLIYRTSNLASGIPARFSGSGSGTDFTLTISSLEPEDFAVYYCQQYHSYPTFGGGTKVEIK
log10 of Kd: -0.06

BINDER: SA301a HC-I51V (antibody, name in Kabat numbering, V domains shown, IgG1 kappa) VH: QVQLQESGPGLVKPSQTLSLTCTVSGYSITSDYNSHWIRQPPGKGLEWIGYVHYSGSTNYNPSLKSRVTISRDTSKNQFSLKLSSVTAADTAVYYCARNYGSIYVNYFDYWGQGTLVTVSS VL: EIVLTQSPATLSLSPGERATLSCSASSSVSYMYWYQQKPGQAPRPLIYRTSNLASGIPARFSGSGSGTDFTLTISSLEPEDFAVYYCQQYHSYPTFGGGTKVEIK
log10 of Kd: -0.26

BINDER: SA301a HC-H52R (antibody, name in Kabat numbering, V domains shown, IgG1 kappa) VH: QVQLQESGPGLVKPSQTLSLTCTVSGYSITSDYNSHWIRQPPGKGLEWIGYIRYSGSTNYNPSLKSRVTISRDTSKNQFSLKLSSVTAADTAVYYCARNYGSIYVNYFDYWGQGTLVTVSS VL: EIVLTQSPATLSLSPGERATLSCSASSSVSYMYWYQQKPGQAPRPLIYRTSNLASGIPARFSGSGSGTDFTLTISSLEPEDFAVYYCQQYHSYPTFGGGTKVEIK
log10 of Kd: 0.19

BINDER: SA301a HC-Y50S (antibody, name in Kabat numbering, V domains shown, IgG1 kappa) VH: QVQLQESGPGLVKPSQTLSLTCTVSGYSITSDYNSHWIRQPPGKGLEWIGSIHYSGSTNYNPSLKSRVTISRDTSKNQFSLKLSSVTAADTAVYYCARNYGSIYVNYFDYWGQGTLVTVSS VL: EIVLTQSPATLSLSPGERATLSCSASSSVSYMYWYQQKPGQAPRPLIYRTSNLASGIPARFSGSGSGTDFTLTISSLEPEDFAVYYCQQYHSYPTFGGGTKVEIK
log10 of Kd: 0.39
